System: HOP-92 NSCLC
protocol: NCI tumour cell line growth inhibition, 48 h
Label rule, in plain words: TGI of 30 µM and up is Yes, under 30 µM is No.

O=C1CC(=O)NC(=NN2C(=O)/C(=C/c3ccc(Cl)cc3)N=C2c2ccccc2)N1
No
O=c1[nH]c(=O)n(C2CC(O)C(O)C(CO)O2)cc1F (stereo not given)
Yes
CCOc1ccc(/C=C2/C(=O)N=C(N)N=C2N)cc1OCC
Yes
Nc1ncnc2c1N=C(c1ccccc1)CC(c1ccccc1)N2 (stereo not given)
Yes
COC(=O)C1=Nc2ccc(F)cc2/C1=C/c1sc(=S)[nH]c1O
No

Next, consider the following molecule.
Does the molecule CC(=O)OC1CC[C@@]2(C)C(=CC[C@@H]3[C@@H]2CC[C@]2(C)C(OC(C)=O)[C@H](n4ccnc4)C[C@@H]32)C1 (stereo not given in full) have recorded TGI that is 30 µM or more?
Yes

---

Give measured TGI for each item. Keep answers brief.
System: PC-3 prostate
protocol: NCI tumour cell line growth inhibition, 48 h

Cn1c(CC(O)c2nc3ccccc3n2C)nc2ccccc21 (stereo unspecified)
> 58.8 µM
COc1cc2c3c(n(CCCN4CCSCC4)c(=O)c2cc1OC)-c1cc2c(cc1C3=O)OCO2
> 100 µM

Look at each compound and report its TGI.
1. CC1(CCCCO)C=CC(S(=O)(=O)c2ccccc2)CC1 (stereo unspecified)
2. Nc1n[nH]c2ccc([C@@H]3Nc4c(F)cc5[nH]ncc5c4[C@H]4C5CCC(C5)[C@@H]34)cc12 (stereo partly specified)
3. COc1cc(OC)c(/C=C/C(=O)c2c(N)cc(OC)cc2OC)c(OC)c1
4. N=C(N)c1ccc(OCCCCCOc2ccc(C(=N)N)cc2)cc1
5. CO[C@]12C[C@@H](CNC(=O)c3cc(Br)c[nH]3)O[C@H]1NC(=O)N2
6. O=C1c2ccccc2/C=C\C(c2ccccc2)=N/N1c1ccccc1Cl
7. O=S(=O)(NCCCNc1nccc(-c2c(-c3cccc(F)c3)nc3occn23)n1)c1cccc2ccccc12
8. Cc1ccc(NC(=O)c2ccc(NC3=C(Cl)C(=O)N(Cc4ccccc4)C3=O)cc2)cc1Cl

["15.1 µM", "> 46.2 µM", "> 100 µM", "> 100 µM", "> 100 µM", "28.6 µM", "> 100 µM", "25.1 µM"]

---

Give measured TGI for each item. Keep answers brief.
Tested on: HCC-2998 colon
protocol: NCI tumour cell line growth inhibition, 48 h
Give bare numbers, in µM.

Look at each molecule and report its TGI.
1. CC(=O)c1c(O)c2c([nH]c1=O)CCCC2
2. CCCCC1Cc2cc(OC)ccc2-c2n1c1cc(OC)ccc1[n+]2C (stereo not given) (tested in a mixture with another compound)

53.4
8.51

---

Tested on: SK-MEL-28 melanoma
protocol: NCI tumour cell line growth inhibition, 48 h
reportedProperty: TGI (µM)
Give bare numbers, in µM.

O=C(Nc1cccc(-n2cc(-c3ccncc3)c(-c3ccc(O)c(Cl)c3)n2)c1)Nc1ccc(Cl)c(Cl)c1
6.58

Look at each molecule and report its TGI.
1. CC1=CC(=O)c2c(O)c3c(c(O)c2C1=O)C1C(O)C(C3=O)C23C(=O)c4c(O)c(C)cc(O)c4C(O)=C2C(=O)CC(O)C13 (stereo not given)
2. Cc1ccc(C(=O)N2C/C(=C/c3ccccc3)C(=O)/C(=C/c3ccccc3)C2)cc1

6.78
68.9

Looking up "CCC1=C(c2ccc(OC)cc2)CC[C@]2(CCNC2=O)[C@@H]1C" , I see its TGI listed as 74.1
